From: patent US7074789B2

pIC50: −log10 of the molar value.
# pIC50 per entry for Ret-1 (Homo sapiens, UniProt P07949)

Structure string	pIC50
COc1cc(Nc2ncnc(Nc3ccc4[nH]ccc4c3)n2)cc(OC)c1OC	> 5.99
COc1cc(Nc2ncnc(-n3c(NCc4cccs4)nc4ccccc43)n2)cc(OC)c1OC	> 6.09

**Q:** Sample COc1ccc(Nc2ncccc2-c2ncnc(Nc3cc(OC)c(OC)c(OC)c3)n2)c(C)c1 — what was its pIC50?
**A:** 5.02 to 5.13

**Q:** I am curious: what pIC50 value has been reported for COc1ccc(CNc2nc3ccccc3n2-c2ncnc(Nc3cc(OC)c(OC)c(OC)c3)n2)cc1 ?
**A:** 5.33 to 6.11

**Q:** Request the reported pIC50 associated with COc1cc(Nc2ncnc(N(CC(=O)O)c3ccc4c(c3)OCO4)n2)cc(OC)c1OC
**A:** < 5.01

**Q:** Requested read-out: pIC50. Entry: c1coc(-c2cc(Nc3ncnc(Nc4ccc(N5CCOCC5)cc4)n3)[nH]n2)c1
**A:** > 6.00

**Q:** Could you tell me which pIC50 is on file for COc1cc(Nc2ncnc(Nc3cc(-c4ccco4)n[nH]3)n2)cc(OC)c1OC ?
**A:** > 6.01

**Q:** // pIC50 lookup, key: COc1ccc(Nc2ncnc(Nc3ccc4[nH]ccc4c3)n2)cc1OC
**A:** 5.18 to 5.96

---

Molecular target: EGFR (Homo sapiens)
Construct: Kinases are expressed as either kinase domains or full length constructs; made in house
Sequence (P00533 25-1210, species assumed): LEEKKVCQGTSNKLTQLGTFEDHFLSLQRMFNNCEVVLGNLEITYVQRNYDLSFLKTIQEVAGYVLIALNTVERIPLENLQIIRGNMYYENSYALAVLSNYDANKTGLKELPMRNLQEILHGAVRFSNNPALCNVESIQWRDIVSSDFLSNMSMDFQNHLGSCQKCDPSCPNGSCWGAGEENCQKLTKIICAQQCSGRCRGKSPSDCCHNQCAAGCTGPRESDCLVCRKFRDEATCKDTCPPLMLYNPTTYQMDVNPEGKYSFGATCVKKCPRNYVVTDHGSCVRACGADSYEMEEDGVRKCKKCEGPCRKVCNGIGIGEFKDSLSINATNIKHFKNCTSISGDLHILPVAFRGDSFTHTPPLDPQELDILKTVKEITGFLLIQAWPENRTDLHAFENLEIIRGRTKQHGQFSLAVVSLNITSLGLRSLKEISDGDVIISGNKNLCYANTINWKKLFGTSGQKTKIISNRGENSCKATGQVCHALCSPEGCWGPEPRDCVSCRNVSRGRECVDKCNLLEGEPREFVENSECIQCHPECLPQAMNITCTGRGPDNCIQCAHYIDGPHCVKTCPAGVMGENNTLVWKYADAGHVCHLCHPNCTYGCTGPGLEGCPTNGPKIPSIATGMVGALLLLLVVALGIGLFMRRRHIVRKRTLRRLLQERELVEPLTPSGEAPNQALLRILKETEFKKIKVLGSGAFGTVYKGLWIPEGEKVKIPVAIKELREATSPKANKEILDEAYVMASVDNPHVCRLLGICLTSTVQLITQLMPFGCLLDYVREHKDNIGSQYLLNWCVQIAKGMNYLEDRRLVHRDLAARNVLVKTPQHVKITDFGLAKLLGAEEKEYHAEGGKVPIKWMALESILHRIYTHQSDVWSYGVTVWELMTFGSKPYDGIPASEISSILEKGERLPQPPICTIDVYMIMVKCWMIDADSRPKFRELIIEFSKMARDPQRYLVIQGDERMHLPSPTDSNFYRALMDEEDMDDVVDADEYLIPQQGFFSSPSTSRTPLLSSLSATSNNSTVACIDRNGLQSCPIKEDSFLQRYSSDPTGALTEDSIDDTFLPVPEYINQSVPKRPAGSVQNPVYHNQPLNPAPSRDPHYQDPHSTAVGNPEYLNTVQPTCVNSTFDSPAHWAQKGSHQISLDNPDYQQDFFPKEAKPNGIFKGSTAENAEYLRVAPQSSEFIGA
Test: Kinase inhibition assay (33P transfer), EGFR
Assay type: biochemical
Settings: Table 2, class symbols A-E; read-out: EGFR-1
pIC50: −log10 of the molar value.
Reported endpoint: pIC50

Molecule	Experimental system	pIC50
COc1cc(Nc2ncnc(-c3cccnc3Nc3ccccc3)n2)ccc1NC(=O)CCCN1CCNCC1	EGFR (Homo sapiens)	5.35 to 6.13
c1ccc(-c2cc(Nc3ncnc(Nc4ccc5[nH]ncc5c4)n3)[nH]n2)cc1	EGFR (Homo sapiens)	5.19 to 5.97
CC(C)Nc1ncccc1-c1ncnc(Nc2cccc(CO)c2)n1	EGFR (Homo sapiens)	4.87 to 4.98
COc1ccc(Nc2ncnc(N(C)c3cccc(C)c3)n2)cc1OC	EGFR (Homo sapiens)	> 5.94
NC(=O)Cc1cccc(Nc2ncnc(-n3c(NCc4ccccc4)nc4ccccc43)n2)c1	EGFR (Homo sapiens)	> 6.05
COCCNc1ncnc(Nc2cc(-c3ccc(C(=O)OC)cc3)n[nH]2)n1	EGFR (Homo sapiens)	< 4.91

**Q:** Please give the measured pIC50 for this molecule: COc1cc(Nc2ncnc(-c3cccnc3NCc3ccccc3OC(F)(F)F)n2)cc(OC)c1OC
**A:** < 5.07

---

Biological target: Itk (Homo sapiens, UniProt Q08881)
Construct: Kinases are expressed as either kinase domains or full length constructs; made in house
Sequence (Q08881 whole entry, species assumed, the tested form may be a part): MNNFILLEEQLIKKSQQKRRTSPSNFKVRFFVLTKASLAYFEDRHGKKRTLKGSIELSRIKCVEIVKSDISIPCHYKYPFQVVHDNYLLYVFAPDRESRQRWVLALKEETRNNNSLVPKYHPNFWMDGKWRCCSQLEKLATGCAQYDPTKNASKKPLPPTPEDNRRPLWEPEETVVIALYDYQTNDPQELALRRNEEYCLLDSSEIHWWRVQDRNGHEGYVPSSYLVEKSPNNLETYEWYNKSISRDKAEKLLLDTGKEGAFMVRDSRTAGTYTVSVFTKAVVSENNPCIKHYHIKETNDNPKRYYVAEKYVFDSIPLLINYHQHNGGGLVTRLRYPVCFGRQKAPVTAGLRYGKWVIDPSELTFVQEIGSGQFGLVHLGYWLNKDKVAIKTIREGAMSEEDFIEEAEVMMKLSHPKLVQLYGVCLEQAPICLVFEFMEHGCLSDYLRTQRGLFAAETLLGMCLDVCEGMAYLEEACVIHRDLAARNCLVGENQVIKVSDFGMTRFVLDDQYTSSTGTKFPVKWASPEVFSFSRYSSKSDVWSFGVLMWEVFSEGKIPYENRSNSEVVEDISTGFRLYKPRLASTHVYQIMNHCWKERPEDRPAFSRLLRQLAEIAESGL
Assay: Kinase inhibition assay (33P transfer), Itk
Type: biochemical
Conditions: read-out: Itk-1
pIC50: −log10 of the molar value.
Reported endpoint: pIC50

// solved cases for pIC50 follow
Molecule	pIC50
CN(c1cccc(Cl)c1)c1ncnc(NCC2CCCO2)n1 (centres unmarked)	< 4.85
COc1cc(Nc2ncnc(-n3c(Nc4ccc(OC(F)(F)F)cc4)nc4ccccc43)n2)cc(OC)c1OC	< 5.09
COc1cc(Nc2ncnc(-n3c(NCc4cccc(F)c4)nc4ccccc43)n2)cc(OC)c1OC	< 5.05

Alright, here's another molecule for you.
**Q:** State the recorded pIC50 for this entry: COc1ccc(Nc2ncnc(NC[C@@H]3CCCO3)n2)cc1OC
**A:** < 4.87

---

Reported IC50 values follow for various compounds
Target: Zap-70 (Homo sapiens)
Construct: Kinases are expressed as either kinase domains or full length constructs; made in house
Sequence (P43403 1-619): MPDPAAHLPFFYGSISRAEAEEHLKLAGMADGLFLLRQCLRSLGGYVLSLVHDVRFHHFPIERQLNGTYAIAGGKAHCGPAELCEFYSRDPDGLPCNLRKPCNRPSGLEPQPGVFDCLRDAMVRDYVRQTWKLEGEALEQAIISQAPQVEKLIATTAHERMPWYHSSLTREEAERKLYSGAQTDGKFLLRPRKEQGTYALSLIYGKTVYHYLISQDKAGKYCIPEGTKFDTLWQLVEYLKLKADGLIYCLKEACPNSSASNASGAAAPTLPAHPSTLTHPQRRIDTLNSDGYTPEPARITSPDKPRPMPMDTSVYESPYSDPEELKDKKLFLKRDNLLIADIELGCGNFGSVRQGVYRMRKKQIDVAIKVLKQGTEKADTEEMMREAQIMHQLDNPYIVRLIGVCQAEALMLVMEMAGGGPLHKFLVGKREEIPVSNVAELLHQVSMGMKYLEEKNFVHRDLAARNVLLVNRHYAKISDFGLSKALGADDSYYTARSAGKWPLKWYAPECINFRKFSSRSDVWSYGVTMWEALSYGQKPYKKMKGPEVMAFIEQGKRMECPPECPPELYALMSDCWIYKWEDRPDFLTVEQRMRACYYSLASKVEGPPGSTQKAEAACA
Assay: Kinase inhibition assay (33P transfer), Zap-70
Format: biochemical
Details: Table 3, class symbols; read-out: Zap-1
Excerpt: The inhibitor compounds described herein are screened in the following manner. […] Kinases are expressed as either kinase domains or full length constructs fused to glutathione S-transferase (GST) or polyHistidine tagged fusion proteins in either E. colior Baculovirus-High Five expression systems. […]

Compound	Observed result
COc1cc(Nc2ncnc(-c3cccnc3Nc3ccc(Cl)cc3C)n2)cc(OC)c1OC [Compound 834]	> 9.4 µM

Let's switch to this compound now.
**Q:** Consider the compound shown here: NC(=O)Cc1cccc(Nc2ncnc(Nc3cccc(Br)c3)n2)c1 [Compound 966] What is its recorded IC50?
**A:** > 11.3 µM

---

Molecular target: EPHB4 (Homo sapiens)
Sequence (P54760 16-987): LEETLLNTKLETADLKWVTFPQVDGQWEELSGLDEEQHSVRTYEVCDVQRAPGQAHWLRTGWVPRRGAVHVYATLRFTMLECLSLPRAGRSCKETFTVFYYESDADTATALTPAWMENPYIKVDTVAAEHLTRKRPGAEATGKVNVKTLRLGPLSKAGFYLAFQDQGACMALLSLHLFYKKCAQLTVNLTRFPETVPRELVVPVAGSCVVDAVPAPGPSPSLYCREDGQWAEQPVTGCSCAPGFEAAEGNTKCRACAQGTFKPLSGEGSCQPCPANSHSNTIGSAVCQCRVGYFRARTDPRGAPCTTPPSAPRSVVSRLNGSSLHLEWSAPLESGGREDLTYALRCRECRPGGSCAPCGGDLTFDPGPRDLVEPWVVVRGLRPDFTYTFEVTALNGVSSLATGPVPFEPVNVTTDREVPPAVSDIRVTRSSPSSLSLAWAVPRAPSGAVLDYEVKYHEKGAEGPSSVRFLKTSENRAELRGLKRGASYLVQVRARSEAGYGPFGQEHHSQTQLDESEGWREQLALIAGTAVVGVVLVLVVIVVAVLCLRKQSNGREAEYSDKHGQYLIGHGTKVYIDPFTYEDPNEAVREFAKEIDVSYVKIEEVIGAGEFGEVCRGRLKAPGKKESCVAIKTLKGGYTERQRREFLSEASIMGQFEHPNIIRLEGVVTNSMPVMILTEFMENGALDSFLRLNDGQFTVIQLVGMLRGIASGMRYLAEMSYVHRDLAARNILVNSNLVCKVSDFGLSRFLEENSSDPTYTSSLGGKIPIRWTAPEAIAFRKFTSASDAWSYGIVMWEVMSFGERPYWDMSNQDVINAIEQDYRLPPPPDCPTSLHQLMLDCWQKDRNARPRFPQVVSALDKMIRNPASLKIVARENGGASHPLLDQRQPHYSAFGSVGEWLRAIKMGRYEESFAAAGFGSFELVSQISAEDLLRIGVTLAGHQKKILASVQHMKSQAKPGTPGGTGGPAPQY
Reported IC50 values for a set of molecules

// known answers, use as guide
Structure string	IC50
NC(=O)c1ccc(Nc2ncnc(Nc3cc(-c4ccco4)n[nH]3)n2)cc1	1.1 to 6.62 µM
COc1cc(Nc2ncnc(Nc3cc(C)[nH]n3)n2)cc(OC)c1OC	1.12 to 6.72 µM

**Q:** Any idea what IC50 was measured for COc1cc(Nc2ncnc(N3CCCc4ccccc43)n2)cc(OC)c1OC ?
**A:** > 11.4 µM

**Q:** Need IC50, item COc1ccc(Nc2ncnc(N(CC(=O)OC(C)(C)C)c3ccc(Cl)cc3)n2)cc1OC
**A:** 5.09 to 7.42 µM

---

Molecular target: Kdr (Homo sapiens)
Construct: Kinases are expressed as either kinase domains or full length constructs; made in house
Sequence (P35968 20-1356, species assumed): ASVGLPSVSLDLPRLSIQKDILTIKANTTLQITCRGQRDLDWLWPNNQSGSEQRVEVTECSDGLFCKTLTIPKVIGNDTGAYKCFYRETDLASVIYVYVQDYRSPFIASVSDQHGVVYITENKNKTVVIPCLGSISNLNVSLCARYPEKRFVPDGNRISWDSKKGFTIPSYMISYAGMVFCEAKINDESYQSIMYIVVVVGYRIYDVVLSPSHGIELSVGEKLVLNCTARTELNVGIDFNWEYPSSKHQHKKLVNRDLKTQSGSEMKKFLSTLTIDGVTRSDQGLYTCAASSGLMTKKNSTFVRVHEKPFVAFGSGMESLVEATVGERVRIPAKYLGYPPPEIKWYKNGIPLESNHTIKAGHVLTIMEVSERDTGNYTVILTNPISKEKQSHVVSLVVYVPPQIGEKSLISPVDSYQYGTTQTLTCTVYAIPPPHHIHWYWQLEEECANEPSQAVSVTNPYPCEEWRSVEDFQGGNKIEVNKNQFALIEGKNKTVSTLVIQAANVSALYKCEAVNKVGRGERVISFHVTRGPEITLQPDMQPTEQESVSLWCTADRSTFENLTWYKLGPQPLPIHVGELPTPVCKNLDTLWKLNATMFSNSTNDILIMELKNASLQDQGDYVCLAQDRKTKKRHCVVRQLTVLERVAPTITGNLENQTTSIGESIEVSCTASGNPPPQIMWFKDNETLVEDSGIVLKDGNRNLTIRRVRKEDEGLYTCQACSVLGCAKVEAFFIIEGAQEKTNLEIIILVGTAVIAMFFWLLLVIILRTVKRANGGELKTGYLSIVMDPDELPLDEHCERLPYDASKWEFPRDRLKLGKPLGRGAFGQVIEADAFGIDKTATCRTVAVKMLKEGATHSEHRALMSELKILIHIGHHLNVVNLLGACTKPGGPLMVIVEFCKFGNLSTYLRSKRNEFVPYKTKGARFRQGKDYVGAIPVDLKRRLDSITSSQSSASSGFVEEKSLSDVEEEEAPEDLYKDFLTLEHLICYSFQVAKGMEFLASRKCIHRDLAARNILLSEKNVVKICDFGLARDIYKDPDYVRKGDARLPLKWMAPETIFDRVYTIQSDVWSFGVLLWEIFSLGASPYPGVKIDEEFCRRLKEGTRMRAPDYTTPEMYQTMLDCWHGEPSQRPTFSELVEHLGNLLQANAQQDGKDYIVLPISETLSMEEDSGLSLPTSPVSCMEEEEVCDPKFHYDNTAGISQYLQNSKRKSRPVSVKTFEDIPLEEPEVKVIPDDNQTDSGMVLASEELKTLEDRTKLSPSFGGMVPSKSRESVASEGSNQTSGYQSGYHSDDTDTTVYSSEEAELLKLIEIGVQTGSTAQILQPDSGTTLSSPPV
Test: Kinase inhibition assay (33P transfer), Kdr
Assay type: biochemical
Details: Table 3; read-out: KDR-1
pIC50: −log10 of the molar value.
Reported endpoint: pIC50

Sample records with pIC50:
Structure string	pIC50
COc1cc(Nc2ncnc(-n3ncc4ccccc43)n2)cc(OC)c1OC	5.20 to 5.98
NC(=O)c1cccc(Nc2ncnc(-c3ccccc3)n2)c1	4.81 to 4.92

**Q:** Which pIC50 is reported for this compound? COc1cccc(Nc2ncnc(-c3cccs3)n2)n1
**A:** < 4.80

**Q:** # input compound: FC(F)C(F)(F)Oc1cccc(Nc2ncnc(-c3ccnc(Cl)c3)n2)c1 ; wanted: its pIC50
**A:** < 4.95

**Q:** Which value of pIC50 has been reported for COc1ccc(Nc2ncnc(Nc3ccc(N(C)C)cc3)n2)cc1OC in the records?
**A:** > 5.96

**Q:** Which measured pIC50 value corresponds to COc1cc(Nc2ncnc(N(CC(=O)OC(C)(C)C)c3ccc4c(c3)OCO4)n2)cc(OC)c1OC ?
**A:** 5.06 to 5.16
